Taken from patent US20240383875A1.

The following compounds each carry a recorded pIC50 for SIK1 (Homo sapiens).
Give bare numbers, as −log10 of the molar value.

Below, 5 compounds whose answers are already recorded.
-- ask Note down pIC50 recorded for Cc1cc(C#N)nn1-c1nc(-n2cnc3cc(Nc4cccn(C)c4=O)ccc32)ccc1C(C)O (stereo not shown) [Example 333]
-- reply 7.39

-- ask Note down pIC50 recorded for CCOc1cc(C)n(-c2nc(-n3cnc4cc(Nc5ccc(C)nn5)ccc43)ccc2C(C)O)n1 (stereo not shown) [Example 133, formic acid]
-- reply 6.35

-- ask Note down pIC50 recorded for Cc1ccc(Nc2ccc3c(c2)ncn3-c2ccc(C(C)O)c(-c3nn(CC(F)(F)F)cc3C)n2)nn1 (stereo not shown) [Example 349]
-- reply 6.36

-- ask Note down pIC50 recorded for Cc1ccc(Nc2ccc3c(c2)ncn3-c2ccc(C(C)O)c(-n3nc(C#N)c(C)c3C)n2)nn1 (stereo not shown) [Example 309]
-- reply 7.57

-- ask Note down pIC50 recorded for Cc1ccc(Nc2ccc3c(c2)ncn3-c2ccc(C(C)O)c(-c3cc(C(F)(F)F)ncc3C)n2)nn1 (stereo not shown) [Example 332]
-- reply 6.50

Give measured pIC50 for every item shown.
1. Cc1cc(C#N)nn1-c1nc(-n2cnc3cc(Nc4ccc(OC5COC5)nn4)ccc32)ccc1C(C)O (stereo not shown) [Example 207]
2. COc1cc2ncn(-c3ccc(CO)c(N4CCCC4=O)n3)c2cc1OC [Example 33]

-- reply
7.57
6.49
